# experimental-protocol: Evaluation of solubility
# Type: physicochemical
# measurement-context: aqueous buffer, kinetic from dmso stock; 100 mM potassium phosphate buffer pH 7.4, 0.1% DMSO, target 100 μM, 1 hour room temperature, LC-MS/MS
solubility at 1 h values for the molecules below.
Write down the numeric answer in µM and omit the unit.

Consider the following illustrative entries.
• CC1(C)C(=O)N(c2ccc(C#N)c(C(F)(F)F)c2)C(=O)N1C/C=C\CN1CCN(c2ccc(S(C)(=O)=O)c(Cl)c2)C1=O = 0.34
• Cc1nn(C/C=C\CN2C(=O)N(c3ccc(C#N)c(C(F)(F)F)c3)C(=O)C2(C)C)c(C)c1-c1ccc(S(C)(=O)=O)c(C(F)(F)F)c1 = 4.38
• CC1(C)C(=O)N(c2ccc(S(C)(=O)=O)c(C(F)(F)F)c2)C(=O)N1C/C=C\Cn1cc(-c2ccc(S(C)(=O)=O)c(C(F)(F)F)c2)cn1 = 0.2
• CC1(C)C(=O)N(c2ccc(C#N)c(C(F)(F)F)c2)C(=O)N1C/C=C\CN1CC(c2ccc(S(C)(=O)=O)c(Cl)c2)CC1=O (centres unmarked) = 24.1
• CC1(C)C(=O)N(c2cnc(C#N)c(C(F)(F)F)c2)C(=O)N1C/C=C\Cn1cc(-c2ccc(S(C)(=O)=O)c(Cl)c2)cn1 = 0.65
• CC1(C)C(=O)N(c2ccc(C#N)c(C(F)(F)F)c2)C(=O)N1C/C=C\CN1CCN(c2ccc(S(C)(=O)=O)c(Cl)c2)S1(=O)=O = 1.97
• CC1(C)C(=O)N(c2ccc(S(C)(=O)=O)c(C(F)(F)F)c2)C(=O)N1C/C=C\CN1CC(c2ccc(S(C)(=O)=O)c(C(F)(F)F)c2)CC1=O (centres unmarked) = 1.9

Here is the next item to consider.
Q: Provide solubility at 1 h value for the following molecule: CC1(C)C(=O)N(c2cnc(C#N)c(C(F)(F)F)c2)C(=O)N1C/C=C\Cn1cc(-c2ccc(S(C)(=O)=O)c(C(F)(F)F)c2)cn1
Result: 1.7
